Quick list: MAX(MFI) per entry.
Biological target: T1, human ROR1 on cells (HEK293T-hROR1, PANC-1, A549) (human, UniProt Q01973 30-937)
T1 construct: whole, on cells; one molecule for the three cell lines; also called huROR1; cell surface ROR1
T1 sequence (Q01973 30-937): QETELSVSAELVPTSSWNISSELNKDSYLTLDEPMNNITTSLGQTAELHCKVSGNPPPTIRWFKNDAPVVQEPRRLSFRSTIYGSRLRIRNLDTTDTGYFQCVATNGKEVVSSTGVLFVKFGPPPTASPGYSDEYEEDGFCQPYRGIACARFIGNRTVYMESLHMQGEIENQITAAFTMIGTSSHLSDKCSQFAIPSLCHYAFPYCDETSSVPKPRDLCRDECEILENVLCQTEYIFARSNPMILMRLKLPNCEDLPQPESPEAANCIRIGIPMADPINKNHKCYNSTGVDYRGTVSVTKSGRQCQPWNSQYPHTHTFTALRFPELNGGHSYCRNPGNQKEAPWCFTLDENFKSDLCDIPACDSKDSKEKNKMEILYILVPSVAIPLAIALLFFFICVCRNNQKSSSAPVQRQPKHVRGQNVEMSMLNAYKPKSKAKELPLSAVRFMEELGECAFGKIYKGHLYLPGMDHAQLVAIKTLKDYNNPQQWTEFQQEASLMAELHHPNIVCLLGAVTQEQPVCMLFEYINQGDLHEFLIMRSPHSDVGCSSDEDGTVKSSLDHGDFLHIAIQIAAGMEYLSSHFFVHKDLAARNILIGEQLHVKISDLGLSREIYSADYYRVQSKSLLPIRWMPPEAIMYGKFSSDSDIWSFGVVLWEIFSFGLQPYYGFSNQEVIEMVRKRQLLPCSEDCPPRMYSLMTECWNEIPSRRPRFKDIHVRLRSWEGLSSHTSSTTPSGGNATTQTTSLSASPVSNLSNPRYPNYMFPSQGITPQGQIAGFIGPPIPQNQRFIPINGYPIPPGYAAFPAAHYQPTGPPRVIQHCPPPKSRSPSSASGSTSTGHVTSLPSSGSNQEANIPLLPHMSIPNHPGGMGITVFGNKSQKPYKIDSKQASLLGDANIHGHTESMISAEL
Experiment: flow cytometry, A549 cells
Procedure: In brief, anti-ROR1 antibodies were serially diluted in staining buffer (PBS containing 2% FBS). Antibody solution was incubated with 1×10⁵ cells at 4° C. for 1 hour. […] After 1-hour incubation at 4° C., cells were washed twice with staining buffer and subjected to flow cytometry. PR000374 (Bench marker 1) and non-relevant IgG isotype control (Crownbio) were used as positive and negative controls, respectively.
Provide the reading as a plain figure in MFI.

See these solved cases before continuing.
• PR303125 (antibody, human IgG1, V domains shown, HCAb (heavy chain-only, human IgG1 Fc), no light chain) VH: EVQLLESGGGLVQPGGSLRLSCAASGFTFSSHAMSWVRQAPGKGLEWVSAISGSGDSTHYAASVKGRFTISRDNSKNTLYLQMNSLRAEDTAVYYCETLLRFLESLGNDGFKIWGQGTMVTVSS = 668000
• PR303155 (antibody, human IgG1, V domains shown, HCAb (heavy chain-only, human IgG1 Fc), no light chain) VH: EVQLVESGGGLVKPGGSLRLSCAASGFTLSDYYMSWIRQAPGKGLEWISYISSNGSTIYYADSVKGRFTISRDNARNSLYLQMNSLRAEDTALYYCARDVSSGWYEDFDYWGQGTLVTVSS = 791000
• PR303191 (antibody, human IgG1, V domains shown, HCAb (heavy chain-only, human IgG1 Fc), no light chain) VH: EVQLLESGGGLVQPGGSLRLSCAASGFIFGSYAMSWVRQAPGKGLEWVSGISGTGGNTYYADSVKGRFTISRDNSKNTLYLQMNSLRAEDTAVYFCERGITIHGVVIIPPDYRGQGTLVTVSS = 650000

# input Which MAX(MFI) reading was recorded for the binder PR303201 (antibody, human IgG1, V domains shown, HCAb (heavy chain-only, human IgG1 Fc), no light chain) VH: EVQLLESGGGLVQPGGSLRLSCAASGFTFSGNAMSWVRQAPGKGLEWVSAISGSGDKTYYAASVKGRFTISRDNSNNTVYLQMNSLRAEDTAVYYCEKGAFRTTMDYWGQGTLVTVSS ?
# output 1.23e+06
